Parameter Bliss excess: see the listing below.
Test system: ES-2 (Ovarian Carcinoma)
Assay: Bliss excess, mean over the matrix (fraction); higher = more synergy
Would you mind answering with just the numeric figure?

INSERT INTO results (molecule, assay_system, result) VALUES
  ('CCc1c2c(nc3ccc(O)cc13)-c1cc3c(c(=O)n1C2)COC(=O)[C@]3(O)CC [SN-38] + CN(C)CCCOc1ccc(-c2ccc3ncc4c(c3c2)n(C2CCOCC2)c(=O)n4C)cn1 [AZD0156] (first compound max 0.3 µM, 7x7, partner max 1 µM)', 'ES-2 (Ovarian Carcinoma)', 0.0144),
  ('NC1(C(=O)N[C@@H](CCO)c2ccc(Cl)cc2)CCN(c2ncnc3[nH]ccc23)CC1 [Capivasertib] + CCN(CCO)CCCOc1ccc2c(Nc3cc(CC(=O)Nc4cccc(F)c4)[nH]n3)ncnc2c1 [AZD2811] (first compound max 10 µM, 7x7, partner max 1 µM)', 'ES-2 (Ovarian Carcinoma)', -0.0018),
  ('Cn1cnc2c(F)c(Nc3ccc(Br)cc3Cl)c(C(=O)NOCCO)cc21 [Selumetinib] + C[C@@H]1COCCN1C2=NC(=NC(=C2)C3(CC3)[S@](=N)(=O)C)C4=C5C=CNC5=NC=C4 [AZD6738] (first compound max 10 µM, 7x7, partner max 10 µM)', 'ES-2 (Ovarian Carcinoma)', 0.0006);

Please find the next molecule below.
Query :: What does the record list as Bliss excess for COc1cccc(OCCCN)c1-c1cc(Nc2cnc(C#N)cn2)n[nH]1 [Prexasertib] + CCc1c2c(nc3ccc(O)cc13)-c1cc3c(c(=O)n1C2)COC(=O)[C@]3(O)CC [SN-38] (first compound max 1 µM, 7x7, partner max 0.3 µM) ?
Result :: -0.0222

###

System: PC-14 (Lung Adenocarcinoma)
Test: Bliss excess, mean over the matrix (fraction); higher = more synergy
metric: Bliss excess
Would you mind answering with just the numeric figure?

INSERT INTO results (compound, metric, result) VALUES
  ('CN(C)CCCOc1ccc(-c2ccc3ncc4c(c3c2)n(C2CCOCC2)c(=O)n4C)cn1 [AZD0156] + C=CCn1c(=O)c2cnc(Nc3ccc(N4CCN(C)CC4)cc3)nc2n1-c1cccc(C(C)(C)O)n1 [AZD1775] (first compound max 1 µM, partner max 1 µM)', 'Bliss excess', -0.0209);

Query :: What does the record list as Bliss excess for CC(=O)c1c(C)c2cnc(Nc3ccc(N4CCNCC4)cn3)nc2n(C2CCCC2)c1=O [Palbociclib] + Cc1c2c(nn1C)CSCc1cc(n(C)n1)CSc1cc(c3ccccc3c1)OCCCc1c(C(=O)O)n(C)c3c-2c(Cl)ccc13 [AZD5991] (first compound max 10 µM, 7x7, partner max 1 µM) ?
Result :: -0.0106

Query :: What does the record list as Bliss excess for COc1nnc2ccc(N3CCC(c4ccc(OCCN5CCN(C)C(=O)[C@H]5C)cc4)CC3)nn12 [AZD5153] + Cc1c2c(nn1C)CSCc1cc(n(C)n1)CSc1cc(c3ccccc3c1)OCCCc1c(C(=O)O)n(C)c3c-2c(Cl)ccc13 [AZD5991] (first compound max 1 µM, 7x7, partner max 1 µM) ?
Result :: -0.0145

###

Tested on: EB-3 (Burkitt's Lymphoma)
Assay: combination Emax (second highest fraction inhibited in the dose matrix, 72 h); higher = more inhibition; extreme values may be limits of the assay
metric: combination Emax
Would you mind answering with just the numeric figure?

Some solved cases for reference:
INSERT INTO results (compound, result) VALUES
  ('C[C@@H]1COCCN1c1cc(C2([S@](C)(=N)=O)CC2)nc(-c2ccnc3[nH]ccc23)n1 [AZD6738] + Nc1ccn([C@@H]2O[C@H](CO)[C@@H](O)C2(F)F)c(=O)n1 [Gemcitabine] (first compound max 10 µM, 7x7, partner max 0.3 µM)', 0.847),
  ('COc1cccc2c1C(=O)c1c(O)c3c(c(O)c1C2=O)C[C@@](O)(C(=O)CO)C[C@@H]3O[C@H]1C[C@H](N)[C@H](O)[C@H](C)O1 [Doxorubicin] + Cc1cc2ncnn2cc1Nc1ncc2c(n1)n(C1CCOCC1)c(=O)n2C [AZD7648] (first compound max 1 µM, 7x7, partner max 10 µM)', 0.919),
  ('COc1nnc2ccc(N3CCC(c4ccc(OCCN5CCN(C)C(=O)[C@H]5C)cc4)CC3)nn12 [AZD5153] + CC1(C)CCC(CN2CCN(c3ccc(C(=O)NS(=O)(=O)c4ccc(NCC5CCOCC5)c([N+](=O)[O-])c4)c(Oc4cnc5[nH]ccc5c4)c3)CC2)=C(c2ccc(Cl)cc2)C1 [Venetoclax] (first compound max 1 µM, 7x7, partner max 1 µM)', 0.806),
  ('C=CCn1c(=O)c2cnc(Nc3ccc(N4CCN(C)CC4)cc3)nc2n1-c1cccc(C(C)(C)O)n1 [AZD1775] + Nc1ccn([C@@H]2O[C@H](CO)[C@@H](O)C2(F)F)c(=O)n1 [Gemcitabine] (first compound max 1 µM, partner max 0.3 µM)', 0.811),
  ('COc1cccc(OCCCN)c1-c1cc(Nc2cnc(C#N)cn2)n[nH]1 [Prexasertib] + CN(C)CCCOc1ccc(-c2ccc3ncc4c(c3c2)n(C2CCOCC2)c(=O)n4C)cn1 [AZD0156] (first compound max 1 µM, 7x7, partner max 1 µM)', 0.838),
  ('Cc1nc(-c2cn3c(n2)-c2ccc(-c4cnn(C(C)(C)C(N)=O)c4)cc2OCC3)n(C(C)C)n1 [Taselisib] + O=C(Nc1ccc2[nH]nc(-c3ccncc3)c2c1)[C@@H]1CCN(CC(=O)N2CCN(c3ccc(-c4ncccn4)cc3)CC2)C1 [SCH772984] (first compound max 10 µM, 7x7, partner max 5 µM)', 0.493),
  ('C[C@@H](Nc1cc(F)cc(F)c1)c1cc(C(=O)N(C)C)cc2c(=O)cc(N3CCOCC3)oc12 [AZD8186] + CC(=O)c1c(C)c2cnc(Nc3ccc(N4CCNCC4)cn3)nc2n(C2CCCC2)c1=O [Palbociclib] (first compound max 10 µM, 7x7, partner max 10 µM)', 0.399);

Please find the next compound below.
Query :: What does the record list as combination Emax for CCN(CCO)CCCOc1ccc2c(Nc3cc(CC(=O)Nc4cccc(F)c4)[nH]n3)ncnc2c1 [AZD2811] + O=C(c1cc(Cc2n[nH]c(=O)c3ccccc23)ccc1F)N1CCN(C(=O)C2CC2)CC1 [Olaparib] (first compound max 1 µM, 7x7, partner max 10 µM) ?
Result :: 0.282

###

Test system: ES-2 (Ovarian Carcinoma)
Assay: combination Emax (second highest fraction inhibited in the dose matrix, 72 h); higher = more inhibition; extreme values may be limits of the assay
Parameter combination Emax: see the listing below.
Would you mind answering with just the numeric figure?

Some solved cases for reference:
INSERT INTO results (molecule, result) VALUES
  ('C=CCn1c(=O)c2cnc(Nc3ccc(N4CCN(C)CC4)cc3)nc2n1-c1cccc(C(C)(C)O)n1 [AZD1775] + O=C(c1cc(Cc2n[nH]c(=O)c3ccccc23)ccc1F)N1CCN(C(=O)C2CC2)CC1 [Olaparib] (first compound max 1 µM, partner max 10 µM)', 0.622),
  ('CCN(CCO)CCCOc1ccc2c(Nc3cc(CC(=O)Nc4cccc(F)c4)[nH]n3)ncnc2c1 [AZD2811] + C[C@@H]1COCCN1C2=NC(=NC(=C2)C3(CC3)[S@](=N)(=O)C)C4=C5C=CNC5=NC=C4 [AZD6738] (first compound max 1 µM, 7x7, partner max 10 µM)', 0.728);

Query :: What does the record list as combination Emax for CC(=O)c1c(C)c2cnc(Nc3ccc(N4CCNCC4)cn3)nc2n(C2CCCC2)c1=O [Palbociclib] + Cc1c2c(nn1C)CSCc1cc(n(C)n1)CSc1cc(c3ccccc3c1)OCCCc1c(C(=O)O)n(C)c3c-2c(Cl)ccc13 [AZD5991] (first compound max 10 µM, 7x7, partner max 1 µM) ?
Result :: 0.619

###

System: RERF-LC-KJ (Lung Adenocarcinoma)
Test: Bliss excess, mean over the matrix (fraction); higher = more synergy
Parameter threshold = -0.003. Response is label 1 when Bliss excess meets or exceeds it, else label 0.

INSERT INTO assay_data (molecule, label) VALUES
  ('NC1(C(=O)N[C@@H](CCO)c2ccc(Cl)cc2)CCN(c2ncnc3[nH]ccc23)CC1 [Capivasertib] + CC(C)n1c(=O)n(C)c2cnc3cc(F)c(-c4ccc(OCCCN5CCCCC5)nc4)cc3c21 [AZD1390] (first compound max 10 µM, 7x7, partner max 0.3 µM)', 'label 1'),
  ('NC1(C(=O)N[C@@H](CCO)c2ccc(Cl)cc2)CCN(c2ncnc3[nH]ccc23)CC1 [Capivasertib] + Cn1cnc2c(F)c(Nc3ccc(Br)cc3Cl)c(C(=O)NOCCO)cc21 [Selumetinib] (first compound max 10 µM, 7x7, partner max 10 µM)', 'label 1'),
  ('CC(=O)c1c(C)c2cnc(Nc3ccc(N4CCNCC4)cn3)nc2n(C2CCCC2)c1=O [Palbociclib] + CN(CC[C@H](CSC1=CC=CC=C1)NC2=C(C=C(C=C2)S(=O)(=O)NC(=O)C3=CC=C(C=C3)N4CCC(CC4)[C@H](C5=CC=CC=C5C6=CC=C(C=C6)Cl)O)S(=O)(=O)C(F)(F)F)CCO [AZD4320] (first compound max 10 µM, 7x7, partner max 1 µM)', 'label 0'),
  ('Cc1cc2ncnn2cc1Nc1ncc2c(n1)n(C1CCOCC1)c(=O)n2C [AZD7648] + C[C@@H]1COCCN1C2=NC(=NC(=C2)C3(CC3)[S@](=N)(=O)C)C4=C5C=CNC5=NC=C4 [AZD6738] (first compound max 10 µM, 7x7, partner max 10 µM)', 'label 1');

Query :: Form field: Bliss excess at least -0.003? Entry: COc1cccc(OCCCN)c1-c1cc(Nc2cnc(C#N)cn2)n[nH]1 [Prexasertib] + C=CCn1c(=O)c2cnc(Nc3ccc(N4CCN(C)CC4)cc3)nc2n1-c1cccc(C(C)(C)O)n1 [AZD1775] (first compound max 1 µM, partner max 1 µM)
Result :: label 1

Query :: Form field: Bliss excess at least -0.003? Entry: NC1(C(=O)N[C@@H](CCO)c2ccc(Cl)cc2)CCN(c2ncnc3[nH]ccc23)CC1 [Capivasertib] + C[C@@H]1COCCN1C2=NC(=NC(=C2)C3(CC3)[S@](=N)(=O)C)C4=C5C=CNC5=NC=C4 [AZD6738] (first compound max 10 µM, 7x7, partner max 10 µM)
Result :: label 0
